# target-entity: E. coli RNase P holoenzyme (M1 P RNA + rnpA protein)
# Sequence: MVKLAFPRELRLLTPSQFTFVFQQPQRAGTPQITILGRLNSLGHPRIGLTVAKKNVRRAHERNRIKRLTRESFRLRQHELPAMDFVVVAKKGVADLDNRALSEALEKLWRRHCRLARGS
# assay: relative kcat/Km (krel) vs genomic leader AAAGAU (relative (reference leader = 1)); higher = faster RNase P cleavage
# experimental-parameters: fraction of substrate reacted: ~13-16% (15.68% repeat 1, 13.17% repeat 2)
Whole data set: some 4,100 sequences, median “relative kcat/Km (krel) vs genomic leader AAAGAU” near 1.7, cut for the highest 2% near 6.5. The entries come from a sample that favours the highest values as a whole.
Is relative kcat/Km at least 4? Then Criterion met. If not, Criterion not met.

[
  {
    "macromolecule-sequence": "GTTCAC",
    "group": "Criterion met"
  },
  {
    "macromolecule-sequence": "TTTCAG",
    "group": "Criterion not met"
  },
  {
    "macromolecule-sequence": "CTTCAT",
    "group": "Criterion met"
  },
  {
    "macromolecule-sequence": "CTTCAA",
    "group": "Criterion not met"
  },
  {
    "macromolecule-sequence": "GTTCAT",
    "group": "Criterion met"
  },
  {
    "macromolecule-sequence": "TTTCAT",
    "group": "Criterion met"
  },
  {
    "macromolecule-sequence": "TGCTCT",
    "group": "Criterion not met"
  },
  {
    "macromolecule-sequence": "ATCAGT",
    "group": "Criterion not met"
  },
  {
    "macromolecule-sequence": "CTCAGG",
    "group": "Criterion not met"
  },
  {
    "macromolecule-sequence": "ATCAGA",
    "group": "Criterion met"
  },
  {
    "macromolecule-sequence": "ATTCAT",
    "group": "Criterion not met"
  },
  {
    "macromolecule-sequence": "GTTCAA",
    "group": "Criterion not met"
  }
]

====

# target-entity: E. coli RNase P holoenzyme (M1 P RNA + rnpA protein) (UniProt P0A7Y8)
# Sequence: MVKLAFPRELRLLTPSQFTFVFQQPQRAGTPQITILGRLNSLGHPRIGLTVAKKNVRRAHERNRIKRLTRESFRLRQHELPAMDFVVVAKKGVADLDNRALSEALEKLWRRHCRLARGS
# assay: relative kcat/Km (krel) vs genomic leader AAAGAU (relative (reference leader = 1)); higher = faster RNase P cleavage
# experimental-parameters: fraction of substrate reacted: ~9-10% (9.79% repeat 1, 9.1% repeat 2)
The full ranking holds about 4,100 sequences; the median of “relative kcat/Km (krel) vs genomic leader AAAGAU” is about 1.7, and the highest 2% start at about 6.5. For the sample, the highest values were picked, then their nearest neighbours and some sequences at random.
Note: every record was labeled by where its relative kcat/Km sits among low range = under 1, mid range = from 1 up to 3, high range = 3 and over

[
  {
    "macromolecule-sequence": "CGAGAG",
    "target-entity": "E. coli RNase P holoenzyme (M1 P RNA + rnpA protein) (UniProt P0A7Y8)",
    "group": "low range"
  },
  {
    "macromolecule-sequence": "GGCGAT",
    "target-entity": "E. coli RNase P holoenzyme (M1 P RNA + rnpA protein) (UniProt P0A7Y8)",
    "group": "mid range"
  },
  {
    "macromolecule-sequence": "GGAGCC",
    "target-entity": "E. coli RNase P holoenzyme (M1 P RNA + rnpA protein) (UniProt P0A7Y8)",
    "group": "mid range"
  },
  {
    "macromolecule-sequence": "AACAGA",
    "target-entity": "E. coli RNase P holoenzyme (M1 P RNA + rnpA protein) (UniProt P0A7Y8)",
    "group": "high range"
  },
  {
    "macromolecule-sequence": "TCATCT",
    "target-entity": "E. coli RNase P holoenzyme (M1 P RNA + rnpA protein) (UniProt P0A7Y8)",
    "group": "mid range"
  },
  {
    "macromolecule-sequence": "CACAGA",
    "target-entity": "E. coli RNase P holoenzyme (M1 P RNA + rnpA protein) (UniProt P0A7Y8)",
    "group": "high range"
  },
  {
    "macromolecule-sequence": "ACGCGA",
    "target-entity": "E. coli RNase P holoenzyme (M1 P RNA + rnpA protein) (UniProt P0A7Y8)",
    "group": "mid range"
  },
  {
    "macromolecule-sequence": "ATCAGA",
    "target-entity": "E. coli RNase P holoenzyme (M1 P RNA + rnpA protein) (UniProt P0A7Y8)",
    "group": "high range"
  },
  {
    "macromolecule-sequence": "CACAGG",
    "target-entity": "E. coli RNase P holoenzyme (M1 P RNA + rnpA protein) (UniProt P0A7Y8)",
    "group": "low range"
  },
  {
    "macromolecule-sequence": "GAAGGC",
    "target-entity": "E. coli RNase P holoenzyme (M1 P RNA + rnpA protein) (UniProt P0A7Y8)",
    "group": "mid range"
  }
]

====

# target-entity: E. coli RNase P holoenzyme (M1 P RNA + rnpA protein) (UniProt P0A7Y8)
# Sequence: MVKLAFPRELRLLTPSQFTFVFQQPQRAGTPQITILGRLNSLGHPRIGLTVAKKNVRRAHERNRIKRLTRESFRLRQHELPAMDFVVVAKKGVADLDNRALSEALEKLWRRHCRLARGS
# assay: relative kcat/Km (krel) vs genomic leader AAAGAU (relative (reference leader = 1)); higher = faster RNase P cleavage
# experimental-parameters: fraction of substrate reacted: ~26-29% (28.66% repeat 1, 26.4% repeat 2)
The full ranking holds about 4,100 sequences; the median of “relative kcat/Km (krel) vs genomic leader AAAGAU” is about 1.7, and the highest 2% start at about 6.5. Many of the other results were omitted from the sample, so the highest values are more common in it than they were.

[
  {
    "macromolecule-sequence": "CTCTGA",
    "relative kcat/Km": 6.63
  },
  {
    "macromolecule-sequence": "CGCTGA",
    "relative kcat/Km": 3.55
  },
  {
    "macromolecule-sequence": "GTCTGG",
    "relative kcat/Km": 0.916
  },
  {
    "macromolecule-sequence": "CAATAT",
    "relative kcat/Km": 6.37
  },
  {
    "macromolecule-sequence": "TATGGT",
    "relative kcat/Km": 1.77
  },
  {
    "macromolecule-sequence": "GACGCC",
    "relative kcat/Km": 6.69
  },
  {
    "macromolecule-sequence": "TACGCC",
    "relative kcat/Km": 7.66
  },
  {
    "macromolecule-sequence": "TCCGCC",
    "relative kcat/Km": 7.97
  },
  {
    "macromolecule-sequence": "GTGCCC",
    "relative kcat/Km": 1.13
  },
  {
    "macromolecule-sequence": "TACGCG",
    "relative kcat/Km": 3.13
  },
  {
    "macromolecule-sequence": "GACGCA",
    "relative kcat/Km": 5.24
  },
  {
    "macromolecule-sequence": "GTGTCA",
    "relative kcat/Km": 1.49
  },
  {
    "macromolecule-sequence": "AGATGT",
    "relative kcat/Km": 1.84
  },
  {
    "macromolecule-sequence": "TACGCA",
    "relative kcat/Km": 6.64
  },
  {
    "macromolecule-sequence": "GACGCT",
    "relative kcat/Km": 3.11
  },
  {
    "macromolecule-sequence": "GTCTGT",
    "relative kcat/Km": 2.58
  },
  {
    "macromolecule-sequence": "GCAATT",
    "relative kcat/Km": 1.21
  },
  {
    "macromolecule-sequence": "TACAGG",
    "relative kcat/Km": 1.7
  },
  {
    "macromolecule-sequence": "CCTGGT",
    "relative kcat/Km": 2.47
  },
  {
    "macromolecule-sequence": "GCATGA",
    "relative kcat/Km": 2.21
  },
  {
    "macromolecule-sequence": "TACAGC",
    "relative kcat/Km": 6.84
  },
  {
    "macromolecule-sequence": "CGACGT",
    "relative kcat/Km": 2.36
  },
  {
    "macromolecule-sequence": "TGCTGA",
    "relative kcat/Km": 2.71
  }
]
